# System: T. cruzi intracellular amastigotes
# ASSAY REMARKS: T. cruzi intracellular amastigote image-based assay
# Type: cell-based, Trypanosoma cruzi
# CONDITION INFO: intracellular amastigotes; n = 2; top 18.3 µM; listed as 3,4-Dihydro-2H-naphtho[2,3-b]-[1,4] thiazine-5,10-dione 1,1-dioxide (9); read-out: IC50 (mean ± SD), T. cruzi
RESULT TYPE: pIC50
// pIC50 is dimensionless: -log10 of concentration (M)

Query :: Query (compound): O=C1C2=C(C(=O)c3ccccc31)S(=O)(=O)CCN2 ; field requested: pIC50
Result :: 5.42

* * *

# System: L. donovani DD8 intracellular amastigotes
# ASSAY REMARKS: L. donovani DD8 intracellular amastigote high content imaging assay
# Assay type: cell-based, Leishmania donovani
# CONDITION INFO: Leishmania donovani, read-out: IC50 (mean ± SD), L. donovani DD8 intracellular amastigotes, n = 2; 14 point dose response, top 20 µM
RESULT TYPE: pIC50
Friendly reminder that pIC50 comes from taking -log10 of the concentration in mol/L.

Query :: Name the reported pIC50 value associated with the compound COc1c(SC)c(CCN(C)C)c2sc3c(CCN(C)C)c(SC)c(OC)c(OC)c3ssc2c1OC
Result :: 5.08
